Provenance of the data: ChEMBL document CHEMBL5058577

Recorded Total Cell Count for the following compounds
tested on: U2OS; test: Multiplex assay against U2OS; assay type: toxicity, cell-based; details: human, 12 h, 1 µM, compound concentration 1 uM, replicate 1
Give a plain numeric answer without units written out.

Example compounds with recorded Total Cell Count:
C[C@H]1[C@H]2CC[C@H]3[C@@H]4CC=C5C[C@@H](N(C)C)CC[C@]5(C)[C@H]4CC[C@]23CN1C [CONESSINE]    248
CN(C)CCCc1cc(C(=O)Nc2ccc(-c3ccncc3)cc2)ccc1O.Cl.Cl    199

Form: compound = CNC[C@H](O)c1ccc(O)c(O)c1 [EPINEPHRINE] ; Total Cell Count = 229

Form: compound = COc1cc(C(=O)N(CCCc2ccccc2)Cc2ccc(CC(=O)O)cc2)cc(OC)c1C ; Total Cell Count = 228

Form: compound = O=C(NCC(=O)N1CC[C@H](N[C@H]2CC[C@@](O)(c3ccc(-c4ncccn4)cn3)CC2)C1)c1cccc(C(F)(F)F)c1 [PF-4136309] ; Total Cell Count = 249

Form: compound = COc1c(C)cc(NC(=O)c2nn(Cc3ccc(F)cc3)c3c2CN(C(=O)c2ccc[nH]2)C[C@]3(C)C(N)=O)cc1C ; Total Cell Count = 247

Form: compound = Cc1ccc(F)cc1C(=O)Nc1ccc(C(=O)N2Cc3cccn3Cc3ccccc32)c(Cl)c1 [LIXIVAPTAN] ; Total Cell Count = 230

Form: compound = Cc1ccc(/C(=C\CN2CCCC2)c2ccccn2)cc1 [TRIPROLIDINE] ; Total Cell Count = 244

Form: compound = Cc1nc2ccc(Oc3ccc(F)cc3)cc2c(=O)n1C[C@H]1CCCN(C(C)C)C1.Cl ; Total Cell Count = 244
